Reference source for all entries: FireProtDB (doi:10.1110/ps.03176803)

B1: Guanyl-specific ribonuclease Sa, P05798 (parent)
chain: DVSGTVCLSALPPEATDTLNLIASDGPFPYSQDGVVFQNRESVLPTQSYGYYHEYTVITPGARTRGTRRIITGEATQEDYYTGDHYATFSLIDQTC

Variants of: B1
Settings: Kitasatospora aureofaciens; pH 7; Thermal; DSC; PIPES 0.03 M; reversible: yes (90-95%); structure 1RGG; whole UniProt chain shown
List of unfolding enthalpy (van 't Hoff) values.

{"Variant Id": "Q38A", "Readout Unit": "kcal/mol", "unfolding enthalpy (van 't Hoff)": 110}
{"Variant Id": "E41K", "Readout Unit": "kcal/mol", "unfolding enthalpy (van 't Hoff)": 100}
{"Variant Id": "R65A", "Readout Unit": "kcal/mol", "unfolding enthalpy (van 't Hoff)": 90}
{"Variant Id": "E54Q", "Readout Unit": "kcal/mol", "unfolding enthalpy (van 't Hoff)": 87}
{"Variant Id": "H85Q", "Readout Unit": "kcal/mol", "unfolding enthalpy (van 't Hoff)": 89}
